System: MG-63 cell line
ASSAY_EXPLANATION: solid tumor cell growth inhibition, MTT
Format: cell-based
EXPERIMENTAL_CONDITIONS: Homo sapiens, MG-63, 72 h
QUANTITY: IC50 (µg/mL)

COMPOUND	QUANTITY	RESULT_NUMBER
COC(=O)[C@]12CCC(C)(C)CC1C1=CCC3[C@@]4(C)CC(C(=O)NCCN5CCCC5)C(=O)C(C)(C)C4CC[C@@]3(C)[C@]1(C)CC2 (some centres unmarked) [BS-OA-005]	IC50	2.31
CCN(CC)CCCNC(=O)C1C[C@]2(C)[C@H]3CC=C4[C@@H]5CC(C)(C)CC[C@]5(C(=O)OC)CC[C@@]4(C)[C@]3(C)CC[C@H]2C(C)(C)C1=O (some centres unmarked) [BS-OA-035]	IC50	1.62

1 = COC(=O)[C@]12CCC(C)(C)CC1C1=CCC3[C@@]4(C)CC(C(=O)NCCCN5CCN(C)CC5)C(=O)C(C)(C)C4CC[C@@]3(C)[C@]1(C)CC2 (some centres unmarked) [BS-OA-078]
2 = COC(=O)[C@]12CCC(C)(C)CC1C1=CCC3[C@@]4(C)CC(C(=O)NCCCN(C)C)C(=O)C(C)(C)C4CC[C@@]3(C)[C@]1(C)CC2 (some centres unmarked) [BS-OA-042]
Qu. // compare measured IC50 between 1 and 2 ; output the lower one Kindly state the label of the option you pick.
Ans. 2
(2: 2.72 µg/mL, 1: 5.7 µg/mL)
